Each recorded value in this set is attributed to patent US9434724B2.

Measured Target: rat brain nicotinic receptor (α7 NAChR) (Rattus norvegicus (Rat), UniProt Q05941)
Sequence (Q05941 23-502 limits assumed): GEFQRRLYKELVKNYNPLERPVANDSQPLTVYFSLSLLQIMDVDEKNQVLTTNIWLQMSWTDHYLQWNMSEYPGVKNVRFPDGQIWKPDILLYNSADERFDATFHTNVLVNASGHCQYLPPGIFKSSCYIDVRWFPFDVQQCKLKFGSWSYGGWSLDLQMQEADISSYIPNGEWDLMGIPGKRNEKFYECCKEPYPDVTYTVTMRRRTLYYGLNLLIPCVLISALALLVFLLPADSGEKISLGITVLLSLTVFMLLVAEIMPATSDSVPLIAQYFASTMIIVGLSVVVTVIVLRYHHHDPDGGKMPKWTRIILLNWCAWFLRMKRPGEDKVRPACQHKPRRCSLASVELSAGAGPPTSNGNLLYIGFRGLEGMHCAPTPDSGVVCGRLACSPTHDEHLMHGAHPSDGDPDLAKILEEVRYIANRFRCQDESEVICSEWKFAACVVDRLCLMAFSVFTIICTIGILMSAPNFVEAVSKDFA
Format: binding
Where a name gives a salt, the structure may show the parent alone.
Measure Name: IC50 (nM)

compound="Cc1ccc2c(C(=O)OCC34CCN(CC3)CC4)c[nH]c2c1.Cl [Compound 45, hydrochloride]" measure_name=IC50 measured_number=73.6
compound="Cl.O=C(OCC12CCN(CC1)CC2)c1c[nH]c2cc(F)cc(Cl)c12 [Compound 64, hydrochloride]" measure_name=IC50 measured_number=337
compound="Cc1cccc2[nH]cc(C(=O)OCC34CCN(CC3)CC4)c12 [Compound 21]" measure_name=IC50 measured_number=58.8
compound="COc1cc2c(C(=O)OCC34CCN(CC3)CC4)c[nH]c2cc1F [Compound 57]" measure_name=IC50 measured_number=257
compound="COc1cc2c(C(=O)OCC34CCN(CC3)CC4)c[nH]c2cc1Cl [Compound 69]" measure_name=IC50 measured_number=394
compound="Cc1ccc2[nH]cc(C(=O)OCC34CCN(CC3)CC4)c2c1C [Compound 70]" measure_name=IC50 measured_number=315
compound="COc1ccc2[nH]cc(C(=O)OCC34CCN(CC3)CC4)c2c1Br [Compound 47]" measure_name=IC50 measured_number=33.3
compound="O=C(OCC12CCN(CC1)CC2)c1c[nH]c2cc(F)cc(Br)c12 [Compound 41]" measure_name=IC50 measured_number=760
compound="COc1cc(F)c2c(C(=O)OCC34CCN(CC3)CC4)c[nH]c2c1.Cl [Compound 33, hydrochloride]" measure_name=IC50 measured_number=49.6
compound="COc1cccc2c(C(=O)OCC34CCN(CC3)CC4)c[nH]c12 [Compound 16]" measure_name=IC50 measured_number=1400
compound="O=C(OCC12CCN(CC1)CC2)c1c[nH]c2ccc(O)cc12 [Compound 15]" measure_name=IC50 measured_number=153
compound="COc1cc2[nH]cc(C(=O)OCC34CCN(CC3)CC4)c2cc1F.Cl [Compound 32, hydrochloride]" measure_name=IC50 measured_number=306
compound="O=C(OCC12CCN(CC1)CC2)c1c[nH]c2ccc(Cl)cc12 [Compound 2]" measure_name=IC50 measured_number=328
compound="COc1cccc2[nH]cc(C(=O)OCC34CCN(CC3)CC4)c12 [Compound 36]" measure_name=IC50 measured_number=48.9
compound="Cc1cc(Cl)cc2[nH]cc(C(=O)OCC34CCN(CC3)CC4)c12 [Compound 50]" measure_name=IC50 measured_number=1290
compound="Cl.O=C(OCC12CCN(CC1)CC2)c1c[nH]c2cccc(C(F)(F)F)c12 [Compound 80, hydrochloride]" measure_name=IC50 measured_number=203
compound="O=C(OCC12CCN(CC1)CC2)c1c[nH]c2ccc(F)c(Cl)c12 [Compound 62, hydrochloride]" measure_name=IC50 measured_number=113
compound="COc1ccc2[nH]cc(C(=O)OCC34CCN(CC3)CC4)c2c1OC [Compound 40]" measure_name=IC50 measured_number=69.6
compound="O=C(OCC12CCN(CC1)CC2)c1c[nH]c2cc(O)ccc12 [Compound 14]" measure_name=IC50 measured_number=61.9
compound="Cc1cc(C#N)cc2[nH]cc(C(=O)OCC34CCN(CC3)CC4)c12 [Compound 60]" measure_name=IC50 measured_number=474
compound="Cc1cc(O)cc2[nH]cc(C(=O)OCC34CCN(CC3)CC4)c12 [Compound 83]" measure_name=IC50 measured_number=31.8
compound="Cc1cc2c(C(=O)OCC34CCN(CC3)CC4)c[nH]c2cc1O [Compound 55]" measure_name=IC50 measured_number=52.3
compound="O=C(OCC12CCN(CC1)CC2)c1c[nH]c2ccc(F)c(Br)c12 [Compound 67]" measure_name=IC50 measured_number=201
compound="Cl.O=C(OCC12CCN(CC1)CC2)c1c[nH]c2cc(OC(F)F)ccc12 [Compound 31, hydrochloride]" measure_name=IC50 measured_number=788
compound="Cc1cc(Br)c2c(C(=O)OCC34CCN(CC3)CC4)c[nH]c2c1 [Compound 49]" measure_name=IC50 measured_number=250
compound="O=C(OCC12CCN(CC1)CC2)c1c[nH]c2cccc(F)c12 [Compound 13]" measure_name=IC50 measured_number=14.1
compound="O=C(OCC12CCN(CC1)CC2)c1c[nH]c2ccc(F)cc12 [Compound 12]" measure_name=IC50 measured_number=86.5
compound="O=C(OCC12CCN(CC1)CC2)c1c[nH]c2cc(O)cc(Br)c12 [Compound 53]" measure_name=IC50 measured_number=53.6
compound="O=C(OCC12CCN(CC1)CC2)c1c[nH]c2cc(Br)ccc12 [Compound 22]" measure_name=IC50 measured_number=607
compound="COc1cc2[nH]cc(C(=O)OCC34CCN(CC3)CC4)c2cc1C [Compound 56]" measure_name=IC50 measured_number=644
compound="O=C(OCC12CCN(CC1)CC2)c1c[nH]c2cc(Cl)ccc12 [Compound 26]" measure_name=IC50 measured_number=451
compound="COc1ccc2[nH]cc(C(=O)OCC34CCN(CC3)CC4)c2c1 [Compound 18]" measure_name=IC50 measured_number=32.6
compound="Cl.O=C(OCC12CCN(CC1)CC2)c1c[nH]c2cc(F)c(F)cc12 [Compound 51, hydrochloride]" measure_name=IC50 measured_number=662
compound="Cl.O=C(OCC12CCN(CC1)CC2)c1c[nH]c2cc(OC(F)(F)F)ccc12 [Compound 29, hydrochloride]" measure_name=IC50 measured_number=3710
compound="Cc1c(F)ccc2[nH]cc(C(=O)OCC34CCN(CC3)CC4)c12 [Compound 43]" measure_name=IC50 measured_number=207

====

Measured Target: rat brain nicotinic receptor (α7 NAChR) (Rattus norvegicus (Rat))
Format: binding
pIC50: −log10 of the molar value.
Examples of compounds with documented pIC50 follow.
Measure Name: pIC50

compound="O=C(OCC12CCN(CC1)CC2)c1c[nH]c2ccc(Cl)cc12 [Compound 27]" measured_target="rat brain nicotinic receptor (α7 NAChR) (Rattus norvegicus (Rat))" measured_number=6.55
compound="COc1c(C)ccc2[nH]cc(C(=O)OCC34CCN(CC3)CC4)c12 [Compound 75]" measured_target="rat brain nicotinic receptor (α7 NAChR) (Rattus norvegicus (Rat))" measured_number=7.28
compound="O=C(OCC12CCN(CC1)CC2)c1c[nH]c2cc(F)ccc12 [Compound 11]" measured_target="rat brain nicotinic receptor (α7 NAChR) (Rattus norvegicus (Rat))" measured_number=6.58
compound="O=C(OCC12CCN(CC1)CC2)c1c[nH]c2c(Cl)cccc12 [Compound 25]" measured_target="rat brain nicotinic receptor (α7 NAChR) (Rattus norvegicus (Rat))" measured_number=5.78
compound="Cc1ccc2[nH]cc(C(=O)OCC34CCN(CC3)CC4)c2c1Cl [Compound 63]" measured_target="rat brain nicotinic receptor (α7 NAChR) (Rattus norvegicus (Rat))" measured_number=6.93
compound="O=C(OCC12CCN(CC1)CC2)c1c[nH]c2cccc(Cl)c12 [Compound 35]" measured_target="rat brain nicotinic receptor (α7 NAChR) (Rattus norvegicus (Rat))" measured_number=7.58

====

Assay Summary: Metabolic stability assay in human liver microsomes (HLM)
Format: in vitro ADME
Settings: Protocol No. 1; human liver microsomes, 1 μM
Where a name gives a salt, the structure may show the parent alone.
Examples of molecules with documented HLM follow.
Measure Name: HLM (L/h/kg)

molecule=COc1cc2c(C(=O)OCC34CCN(CC3)CC4)c[nH]c2cc1C.Cl measure_name=HLM unit_abbrev=L/h/kg measured_number=0.6432
molecule=Cl.O=C(OCC12CCN(CC1)CC2)c1c[nH]c2cc(Cl)c(F)cc12 measure_name=HLM unit_abbrev=L/h/kg measured_number=0.2402
molecule=Cl.O=C(OCC12CCN(CC1)CC2)c1c[nH]c2cc(Cl)cc(Cl)c12 measure_name=HLM unit_abbrev=L/h/kg measured_number=0.4061
molecule=Cl.O=C(OCC12CCN(CC1)CC2)c1c[nH]c2cc(C(F)(F)F)ccc12 measure_name=HLM unit_abbrev=L/h/kg measured_number=0.313
molecule=COc1cc2[nH]cc(C(=O)OCC34CCN(CC3)CC4)c2cc1OC measure_name=HLM unit_abbrev=L/h/kg measured_number=0.03
molecule=COc1cc(Cl)cc2[nH]cc(C(=O)OCC34CCN(CC3)CC4)c12.Cl measure_name=HLM unit_abbrev=L/h/kg measured_number=0.57901
molecule=Cc1cc2[nH]cc(C(=O)OCC34CCN(CC3)CC4)c2cc1Cl.Cl measure_name=HLM unit_abbrev=L/h/kg measured_number=0
molecule=Cl.O=C(OCC12CCN(CC1)CC2)c1c[nH]c2cc(F)c(F)cc12 measure_name=HLM unit_abbrev=L/h/kg measured_number=0.06024
molecule=Cc1cc(Cl)c2c(C(=O)OCC34CCN(CC3)CC4)c[nH]c2c1.Cl measure_name=HLM unit_abbrev=L/h/kg measured_number=0.1352
molecule=Cl.O=C(OCC12CCN(CC1)CC2)c1c[nH]c2cccc(C(F)(F)F)c12 measure_name=HLM unit_abbrev=L/h/kg measured_number=0.332
molecule=COc1cc2c(C(=O)OCC34CCN(CC3)CC4)c[nH]c2cc1F measure_name=HLM unit_abbrev=L/h/kg measured_number=0
molecule=Cl.O=C(OCC12CCN(CC1)CC2)c1c[nH]c2cc(O)c(F)cc12 measure_name=HLM unit_abbrev=L/h/kg measured_number=0
molecule=O=C(OCC12CCN(CC1)CC2)c1c[nH]c2cc(O)cc(Br)c12 measure_name=HLM unit_abbrev=L/h/kg measured_number=0.4982
molecule="Cc1cc2[nH]cc(C(=O)OCC34CCN(CC3)CC4)c2cc1F [Compound 72, hydrochloride]" measure_name=HLM unit_abbrev=L/h/kg measured_number=0.1819
molecule=Cc1cc2c(C(=O)OCC34CCN(CC3)CC4)c[nH]c2cc1C#N measure_name=HLM unit_abbrev=L/h/kg measured_number=0.6144
molecule=Cc1cc2[nH]cc(C(=O)OCC34CCN(CC3)CC4)c2cc1C.Cl measure_name=HLM unit_abbrev=L/h/kg measured_number=0.1695
molecule=Cc1ccc2c(C(=O)OCC34CCN(CC3)CC4)c[nH]c2c1.Cl measure_name=HLM unit_abbrev=L/h/kg measured_number=0.1786
molecule=Cl.O=C(OCC12CCN(CC1)CC2)c1c[nH]c2cc(F)cc(Cl)c12 measure_name=HLM unit_abbrev=L/h/kg measured_number=0.16484
